# Test target: T1, Gbp2 RRM12 (Saccharomyces cerevisiae, UniProt P25555 122-316)
# T1 sequence: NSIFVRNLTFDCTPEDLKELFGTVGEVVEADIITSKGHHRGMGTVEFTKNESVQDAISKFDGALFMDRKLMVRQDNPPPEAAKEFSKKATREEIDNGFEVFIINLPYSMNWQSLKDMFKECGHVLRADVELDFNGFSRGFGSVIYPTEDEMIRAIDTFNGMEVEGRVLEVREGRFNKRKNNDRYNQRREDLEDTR
# Assay notes: fluorescence anisotropy
Catalogue of Kd values
Write it as a number; the unit µM goes unstated.

• TTGGTGTT (ssDNA) [d(TTGGTGTT)] = 24

Kindly consider the entry below.
Reported Kd for UUGGUGUU (ssRNA) [Selex RNA UUGGUGUU] : what is it?
5.5

// provenance: paper PMC4705658
